- TEST_METHOD_NOTES: Example 1: pharmacokinetics of Compound I, single (SD) and multiple (MD, q8h 7 days) ascending doses, 3-hour IV infusion, healthy adult subjects
- Type: in vivo, human
- REPORTED_CONDITIONS: human, plasma, intravenous, 2000 mg, 2000 mg multiple dose
QUANTITY_NAME: AUC(0-t)

Ask: Returns the measured AUC(0-t) for the input compound. Input: O=C(O)C[C@@H]1CC[C@H](NC(=O)Cc2cccs2)B(O)O1 [Compound I]
Result: 145 µg·h/mL

----------
- TEST_METHOD_NOTES: clinical
- REPORTED_CONDITIONS: both, human, in vivo, Concentration in ELF
QUANTITY_NAME: concentration at 4 h (ng/mL)
Could you give me the number in ng/mL? Just the number is fine.

Ask: Returns the measured concentration at 4 h for the input compound. Input: `C[C@@H](O)[C@H]1C(=O)N2C(C(=O)O)=C(S[C@@H]3CN[C@H](C(=O)N(C)C)C3)[C@H](C)[C@H]12`
Result: 16100
